Assay: NCI Yeast Anticancer Drug Screen. Data for the cln2 rad14 strain (AID 165);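 also: 0% = growth equal to vehicle treated cultures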
Settings: S. cerevisiae cln2 rad14 strain, at 50.0 µM, stronger effect = higher value
The panel holds about 79,000 compounds, 15% with a hit somewhere; the sample as a whole holds those more often.
readout_type: growth inhibition (%)
Express it in %; write the number only.

For O=C1NC(=O)[C@@H](OCC2CCCCC2)[C@@H]2OCC3OC(C(O)C3O)C12 (some centres undefined) the molecule record lists growth inhibition as 23.2

###

Test: NCI Yeast Anticancer Drug Screen. Data for the mec2-1 strain (AID 157)
Conditions: S. cerevisiae mec2-1 strain, at 50.0 µM, stronger effect = higher value
Compounds without any hit were thinned out: in the full panel of roughly 79,000, 15% have a hit.
growth inhibition overview
State just the number; it will be interpreted in %.

Sample records with growth inhibition:
{"compound": "COC(OC)c1cc(C(=O)O)c2ccccc2n1", "growth inhibition (%)": -31.2}
{"compound": "Cc1cc(O[Si](C)(C)C)nc(O[Si](C)(C)C)n1", "growth inhibition (%)": -3.7}
{"compound": "CCCCCCCCCCCCCCCCSc1cccc(C)c1", "growth inhibition (%)": 3.65}
{"compound": "CCOC(=O)c1sc(SC)nc1NC(=O)c1ccc(Cl)cc1", "growth inhibition (%)": 19.8}
{"compound": "COC(=O)COC(=O)C1C(C(N)=O)N(CC(=O)OC)CCN1CC(=O)OC (centres undefined)", "growth inhibition (%)": -0.9}
{"compound": "Cc1ccccc1N(CCC#N)C1=NN(C(=O)CC(=O)Nc2ccc(Cl)cc2)C(c2ccccc2)C1 (centres undefined)", "growth inhibition (%)": -9.05}
{"compound": "Cc1ccc([N+](=O)[O-])cc1NC(=O)NCCO", "growth inhibition (%)": 1.6}
{"compound": "COc1cc(N(Cc2ccc3oc(=O)c(-c4ccccc4)nc3c2)Cc2ccc3oc(=O)c(-c4ccccc4)nc3c2)cc(OC)c1OC", "growth inhibition (%)": -2.45}

As a next step, examine the compound that follows.
The value of growth inhibition measured for the compound COC(=O)CC(c1ccc2c(c1)OCO2)N1CCCCC1 (centres undefined) turned out to be -12.9

###

Assay: NCI Yeast Anticancer Drug Screen. Data for the mlh1 rad18 strain (AID 175)
Details: S. cerevisiae mlh1 rad18 strain growth inhibition; at 50.0 µM; stronger effect = higher value
The panel holds about 79,000 compounds, 15% with a hit somewhere; the sample as a whole holds those more often.
# growth inhibition per record follows
Answer format: numeric, % implied, no suffix.

Check out these entries, answers already filled in.
{"compound": "CCOc1cc2c(cc1O)CC[C@@H]1[C@@H]2CC[C@]2(C)C(N)CC[C@@H]12 (some centres undefined)", "growth inhibition, %": -8.8}
{"compound": "COC(=O)Cc1ccc2c(c1)Sc1ccc(CC(=O)OC)cc1N2C", "growth inhibition, %": -36.3}
{"compound": "c1ccc(-c2nc3ncncc3[nH]2)cc1", "growth inhibition, %": -5.6}

growth inhibition reported for this compound COC(=O)C(C(=O)C(=O)Nc1cccc([N+](=O)[O-])c1)c1nc2ccc([N+](=O)[O-])cc2[nH]c1=O (centres undefined) : 46.5

Consider `Oc1ccc(Cl)cc1/C=N\NC(=S)Nc1ccc2cn[nH]c2c1` . Its measured growth inhibition is 11.3

Entry CC1=CC(O)(c2ccccc2)C(N2CCOCC2)N1O (centres undefined) , growth inhibition reported as -8.55

Memo: `COc1ccc2cc(NC(=O)N/N=C\c3ccc([N+](=O)[O-])cc3)ccc2c1` , reported growth inhibition: 27.4

The compound `COc1ccc2c(c1)CC[C@@H]1[C@@H]2CC[C@]2(C)[C@H](S)CC[C@@H]12` showed growth inhibition equal to -7.3

The measured growth inhibition associated with `CCOC(=O)C(CCSC)(CCN(C)Cc1ccccc1)C(=O)OCC` reads -3.3

Kindly note the recorded growth inhibition for COc1ccc(C(c2cc3c(cc2O)OCO3)N2CCOCC2)c(OC)c1 (centres undefined) , which is -17.9

`O=[N+]([O-])c1ccc(N=Nc2ccc(N(CCO)CCO)cc2)cc1` has a reported growth inhibition of 6.1

Just so you know, measured growth inhibition for `COc1cc2cc(c1Cl)NC(=O)/C=C/[C@]1(C)O[C@H]1[C@H](C)[C@@H]1C[C@@](O)(NC(=O)O1)[C@H](OC)C=C/C=C(\C)C2` came out at 21.4

Value of measured growth inhibition for the entry `CC1([N+](=O)[O-])COC2(CCCCC2)OC1` : 24.2

# growth inhibition of COC(=O)C(Br)C(Br)c1ccc(OC)c(OC)c1 (centres undefined) = 16.2

Record `C=CNc1cccc2ccccc12` . Reported growth inhibition: 14.7

For `O=C1C=C2CCC[C@H]3OC(=O)C[C@@]23CC1` the compound record lists growth inhibition as 27.4

compound `CCO/C=C1/N=C(c2cc([N+](=O)[O-])cc([N+](=O)[O-])c2C)OC1=O` , growth inhibition observed: 15.1

Noted for `CCOC(=O)c1cnc(=S)[nH]c1N` : its growth inhibition reads -43.5

Lab book: growth inhibition of `Nc1nc(N)c(-c2ccc(Cl)c(Cl)c2)c(COc2cccc3ccccc23)n1` noted as 98.7
